Attribution: the SangsterLogP compilation

VALUE_KIND: logP
Respond numerically, and do not add a unit to the figure.

So, `COc1ccc(CN2CCNCC2)c(OC)c1OC` ? Its logP was 1.04

----------
# EXPERIMENTAL_DETAILS: method code SF, from DOI: 10.1248/cpb.35.4144, PMID: 3435941
# REPORTED_CONDITIONS: pH 6.8
VALUE_KIND: logD
I only need the number, thanks.

The molecule listed as COC(=O)C1=C(C)NC(C)=C(P2(=O)OCCCO2)C1c1ccccc1[N+](=O)[O-] (stereo unspecified) has a reported logD of 1.3

----------
# EXPERIMENTAL_DETAILS: method code SF-GLC,RC, from DOI: 10.1016/0048-3575(73)90050-3
VALUE_KIND: logP
Returns: the value as a bare number; no unit string appended.

Value of logP reported for the molecule `ClCc1ccccc1` is 2.3
